Provenance of the data: ChEMBL document CHEMBL4400534

# target.or.test.system: Human immunodeficiency virus type 1 reverse transcriptase (Human immunodeficiency virus 1, UniProt Q72547)
# experiment.description: Inhibition of HIV1 reverse transcriptase RNase H expressed in Escherichia coli JM109 using RNA/DNA duplex substrate HTS-1
Each entry below carries its reported log10 IC50.
Scale type: logarithmic (base 10). Underlying IC50 unit: nM.

Consider the following illustrative entries.
O=C(c1cccc(-c2ccccc2)c1)c1cc(=O)n(O)c(=O)[nH]1; 1.23
COc1ccc(-c2ccc(C(=O)c3cc(=O)n(O)c(=O)[nH]3)cc2)cc1; 2.72
Cc1cc(-c2ccc(C(=O)c3cc(=O)n(O)c(=O)[nH]3)cc2)ccc1F; 1.28

Exam item: Recall and state the measured log10 IC50 for `N#Cc1ccc(-c2ccc(C(=O)c3cc(=O)n(O)c(=O)[nH]3)cc2)cc1` .
Marked response: 1.38

Exam item: Recall and state the measured log10 IC50 for `CCOCn1c(C(=O)c2ccc(-c3ccccc3)cc2)cc(=O)n(O)c1=O` .
Marked response: 2.62

Exam item: Recall and state the measured log10 IC50 for `O=C(c1ccc(-c2ccc(C(F)(F)F)cc2)cc1)c1cc(=O)n(O)c(=O)[nH]1` .
Marked response: 1.41

Exam item: Recall and state the measured log10 IC50 for CCOCn1c(C(C#N)c2cc(C)cc(C)c2)cc(=O)n(O)c1=O (stereo unspecified) .
Marked response: 3.57

Exam item: Recall and state the measured log10 IC50 for `O=C(c1ccc(F)cc1)c1cc(=O)n(O)c(=O)[nH]1` .
Marked response: 1.93

Exam item: Recall and state the measured log10 IC50 for `Cc1cc(C)cc(C(=O)c2cc(=O)n(O)c(=O)[nH]2)c1` .
Marked response: 1.95

Exam item: Recall and state the measured log10 IC50 for `Cc1ccc(C(=O)c2cc(=O)n(O)c(=O)[nH]2)cc1` .
Marked response: 1.97

Exam item: Recall and state the measured log10 IC50 for CCOCn1c(C(C#N)c2ccc(-c3ccccc3)cc2)cc(=O)n(O)c1=O (stereo unspecified) .
Marked response: 2.88

###

# experiment.description: Cytotoxicity against human P4R5 cells after 72 hrs by XTT assay
# Format: cell-based
Each entry below carries its reported CC50.

Exam item: Recall and state the measured CC50 for `CCOCn1c(C(=O)c2cccc(-c3ccccc3)c2)cc(=O)n(O)c1=O` .
Marked response: 73 µM

###

# target.or.test.system: Human immunodeficiency virus type 1 integrase (Human immunodeficiency virus 1)
# Sequence (Q7ZJM1 whole entry): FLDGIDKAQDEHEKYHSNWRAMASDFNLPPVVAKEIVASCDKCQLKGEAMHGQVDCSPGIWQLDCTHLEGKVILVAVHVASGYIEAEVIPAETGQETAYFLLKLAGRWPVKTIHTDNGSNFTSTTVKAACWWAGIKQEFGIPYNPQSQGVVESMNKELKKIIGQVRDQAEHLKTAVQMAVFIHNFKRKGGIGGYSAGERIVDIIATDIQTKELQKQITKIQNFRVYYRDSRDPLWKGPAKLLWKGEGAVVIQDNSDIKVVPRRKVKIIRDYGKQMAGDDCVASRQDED
measurement.kind: pIC50
In simple prose, pIC50 is minus the logarithm base ten of a concentration in moles per litre.

Consider the following illustrative entries.
O=C(c1ccc(C(F)(F)F)cc1)c1cc(=O)n(O)c(=O)[nH]1; 5.68
Cc1ccc(C(=O)c2cc(=O)n(O)c(=O)[nH]2)cc1; 5.14
Cc1cc(C)cc(-c2ccc(C(=O)c3cc(=O)n(O)c(=O)[nH]3)cc2)c1; 5.46
COc1ccc(-c2ccc(C(=O)c3cc(=O)n(O)c(=O)[nH]3)cc2)cc1OC; 6.48
O=C(c1ccc(-c2ccc(F)cc2)cc1)c1cc(=O)n(O)c(=O)[nH]1; 5.17
O=C(c1ccc(F)cc1)c1cc(=O)n(O)c(=O)[nH]1; 5.40

Exam item: Recall and state the measured pIC50 for `Cc1cc(C)cc(C(=O)c2cc(=O)n(O)c(=O)[nH]2)c1` .
Marked response: 5.31

Exam item: Recall and state the measured pIC50 for `N#Cc1ccc(-c2ccc(C(=O)c3cc(=O)n(O)c(=O)[nH]3)cc2)cc1` .
Marked response: 6.28

Exam item: Recall and state the measured pIC50 for `O=C(c1ccc(-c2ccccc2)cc1)c1cc(=O)n(O)c(=O)[nH]1` .
Marked response: 5.60

Exam item: Recall and state the measured pIC50 for `Cc1cc(-c2ccc(C(=O)c3cc(=O)n(O)c(=O)[nH]3)cc2)ccc1F` .
Marked response: 5.37
